# reported relative activity (%) ± SD of ATP hydrolysis, NTPDase8; entries follow
- SYSTEM_UNDER_TEST: human NTPDase8 (Homo sapiens, UniProt Q5MY95)
- Sequence (Q5MY95 1-495): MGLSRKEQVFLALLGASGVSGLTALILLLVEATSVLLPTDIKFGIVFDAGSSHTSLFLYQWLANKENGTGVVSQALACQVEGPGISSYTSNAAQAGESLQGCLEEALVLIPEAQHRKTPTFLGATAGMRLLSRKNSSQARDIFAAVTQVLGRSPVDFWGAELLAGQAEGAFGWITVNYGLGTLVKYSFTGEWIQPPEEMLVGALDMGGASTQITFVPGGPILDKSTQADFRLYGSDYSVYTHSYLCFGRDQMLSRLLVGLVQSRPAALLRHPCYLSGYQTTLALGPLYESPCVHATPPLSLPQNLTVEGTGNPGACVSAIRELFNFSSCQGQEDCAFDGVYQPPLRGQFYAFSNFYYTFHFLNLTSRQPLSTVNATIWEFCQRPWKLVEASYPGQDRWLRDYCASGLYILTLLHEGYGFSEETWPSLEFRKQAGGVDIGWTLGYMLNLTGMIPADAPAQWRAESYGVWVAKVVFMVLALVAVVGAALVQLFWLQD
- MEASUREMENT_SETUP: analogue 100 μM as substrate; activity with 100 μM ATP set as 100%
Hi! Could you send only the number? It should be in %, unit omitted.

Known relative activity (%) ± SD of ATP hydrolysis, NTPDase8 results, listed for orientation:
SMILES_STR | UNIT_TAG | REPORTED_MEASUREMENT
Nc1ncnc2c1nc(S)n2[C@@H]1O[C@H](COP(=O)(O)OP(=O)(O)OP(=O)(O)O)[C@@H](O)[C@H]1O | % | 73
Nc1ncnc2c1ncn2[C@@H]1O[C@H](CO[P@@](O)(=S)OP(=O)(O)CP(=O)(O)O)[C@@H](O)[C@H]1O | % | 5.3
Nc1ncnc2c1ncn2[C@@H]1O[C@H](CO[P@](O)(=S)OP(=O)(O)CP(=O)(O)O)[C@@H](O)[C@H]1O | % | 4.4
Nc1ncnc2c1ncn2[C@@H]1O[C@H](COP(=O)(O)CP(=O)(O)OP(O)(O)=S)[C@@H](O)[C@H]1O | % | 5.2
Nc1ncnc2c1ncn2[C@@H]1O[C@H](CO[P@](O)(=S)OP(=O)(O)C(Cl)(Cl)P(=O)(O)O)[C@@H](O)[C@H]1O | % | 4.3

Okay, next one:
Lookup: Specify reported relative activity (%) ± SD of ATP hydrolysis, NTPDase8 for the molecule shown: Nc1ncnc2c1ncn2[C@@H]1O[C@H](CO[P@@](O)(=S)OP(=O)(O)C(Cl)(Cl)P(=O)(O)O)[C@@H](O)[C@H]1O
Found: 5.3

----------
- SYSTEM_UNDER_TEST: UniProt O75355
- Sequence (O75355 whole entry): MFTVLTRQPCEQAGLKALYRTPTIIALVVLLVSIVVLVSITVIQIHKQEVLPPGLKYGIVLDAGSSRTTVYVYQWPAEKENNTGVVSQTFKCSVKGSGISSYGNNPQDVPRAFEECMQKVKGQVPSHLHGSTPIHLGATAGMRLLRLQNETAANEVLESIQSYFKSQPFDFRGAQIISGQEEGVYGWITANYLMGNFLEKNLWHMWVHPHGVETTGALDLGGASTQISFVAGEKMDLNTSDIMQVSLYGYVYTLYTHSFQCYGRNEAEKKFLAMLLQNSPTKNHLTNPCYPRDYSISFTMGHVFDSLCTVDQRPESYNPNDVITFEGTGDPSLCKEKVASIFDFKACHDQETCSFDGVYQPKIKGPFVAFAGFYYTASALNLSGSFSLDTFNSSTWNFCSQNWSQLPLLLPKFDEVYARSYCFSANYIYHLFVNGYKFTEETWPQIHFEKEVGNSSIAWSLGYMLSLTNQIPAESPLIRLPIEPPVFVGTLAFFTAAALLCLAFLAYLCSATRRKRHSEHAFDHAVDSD
- MEASUREMENT_SETUP: analogue 100 μM as substrate; activity with 100 μM ATP set as 100%
Below: a set of entries, each annotated with reported relative activity (%) ± SD of ATP hydrolysis, NTPDase3.
Please respond with the number in % and leave the unit unwritten.

Some compounds with known relative activity (%) ± SD of ATP hydrolysis, NTPDase3 results, for comparison:
SMILES_STR | SYSTEM_UNDER_TEST | REPORTED_MEASUREMENT
Nc1ncnc2c1ncn2[C@@H]1O[C@H](CO[P@](O)(=S)OP(=O)(O)CP(=O)(O)O)[C@@H](O)[C@H]1O | UniProt O75355 | 4.2
Nc1ncnc2c1ncn2[C@@H]1O[C@H](CO[P@@](O)(=S)OP(=O)(O)C(Cl)(Cl)P(=O)(O)O)[C@@H](O)[C@H]1O | UniProt O75355 | 5.4
Nc1ncnc2c1nc(S)n2[C@@H]1O[C@H](COP(=O)(O)OP(=O)(O)OP(=O)(O)O)[C@@H](O)[C@H]1O | UniProt O75355 | 51
Nc1ncnc2c1ncn2[C@@H]1O[C@H](CO[P@](O)(=S)OP(=O)(O)C(Cl)(Cl)P(=O)(O)O)[C@@H](O)[C@H]1O | UniProt O75355 | 5.2
Nc1ncnc2c1ncn2[C@@H]1O[C@H](CO[P@@](O)(=S)OP(=O)(O)CP(=O)(O)O)[C@@H](O)[C@H]1O | UniProt O75355 | 4.8

Lookup: Supply reported relative activity (%) ± SD of ATP hydrolysis, NTPDase3 belonging to this compound: Nc1ncnc2c1ncn2[C@@H]1O[C@H](COP(=O)(O)CP(=O)(O)OP(O)(O)=S)[C@@H](O)[C@H]1O
Found: 4.8
